Reference for the values: patent US20240010606A1

# Tested on: hepatocytes
# METHOD DESCRIPTION: Hepatocyte stability assay, mouse
# Assay type: in vitro ADME
# RUN CONDITIONS: 10 μM compound, Table 6

| MOLECULE | CIint |
| --- | --- |
| O=C(O)/C=C/C(=O)OC1(c2ccc(C(F)(F)F)cc2)CC(F)(F)C1 [Intermediate 32] | +++ (+++ means >15-30) |
| O=C(O)/C=C/C(=O)OC1(c2ccc(C(F)(F)F)cc2)CCC1 [Intermediate 3] | +++ (+++ means >15-30) |
| C[C@@H](OC(=O)/C=C/C(=O)O)c1ccc(C(F)(F)F)cc1 [Intermediate 20] | +++ (+++ means >15-30) |

====

Each record here notes measured half-life at 10 μM.
# METHOD DESCRIPTION: Hepatocyte stability assay, human
# Type: in vitro ADME
# RUN CONDITIONS: cryopreserved hepatocytes, 10 μM compound, Table 6, read-out: T½

Bench note: what half-life at 10 μM did O=C(O)/C=C/C(=O)OC1(c2ccc(C(F)(F)F)cc2)CSC1 [Intermediate 17] show?
0.0833 to 0.483 h

Ok, now O=C(O)/C=C/C(=O)OC1(c2cc(F)c(C(F)(F)F)c(F)c2)CCC1 [Intermediate 29]
> 1.67 h

Ok, now O=C(O)/C=C/C(=O)OC1(c2ccc(C(F)(F)F)cc2)CC(F)(F)C1 [Intermediate 32]
0.5 to 1.67 h

Ok, now O=C(O)/C=C/C(=O)OC1(c2ccc(C(F)(F)F)c(Cl)c2)CCC1 [Intermediate 26]
0.5 to 1.67 h

Ok, now CC(C)(OC(=O)/C=C/C(=O)O)c1ccc(C(F)(F)F)cc1 [Intermediate 21]
> 1.67 h

Ok, now O=C(O)/C=C/C(=O)OC1(c2ccc(C(F)(F)F)c(F)c2)CCC1 [Intermediate 16]
> 1.67 h

Ok, now O=C(O)/C=C/C(=O)OC1(c2cc(Cl)cc(Cl)c2)CCC1 [Intermediate 14]
> 1.67 h

Ok, now O=C(O)/C=C/C(=O)OC(c1ccc(C(F)(F)F)cc1)C(F)(F)F (single isomer, unassigned) [Intermediate 44]
0.0833 to 0.483 h

====

# Test system: IL-1β
# METHOD DESCRIPTION: THP-1 AlphaLISA IL-1β cytokine assay
# Format: cell-based
# RUN CONDITIONS: Homo sapiens; differentiated THP-1 cells; Table 2, compounds of formula (II)
Counter-ions that a name gives are not always drawn.
Each record here notes measured IC50.

Recorded results for 8 compounds are shown here.
| COMPOUND | RESULT |
| --- | --- |
| O=C(O)/C=C/C(=O)OC1(c2ccc(C(F)(F)F)c(Cl)c2)CCC1 [Intermediate 26] | < 6 µM |
| CC(C)(OC(=O)/C=C/C(=O)O)c1ccc(C(F)(F)F)cc1 [Intermediate 21] | 6 to 30 µM |
| O=C(O)/C=C/C(=O)OC1(c2ccccc2C(F)(F)F)CCC1 [Intermediate 11] | 50 to 100 µM |
| O=C(O)/C=C/C(=O)OC1(c2ccc(C(F)(F)F)cc2)CC1 [Intermediate 38] | < 6 µM |
| C[C@H](OC(=O)/C=C/C(=O)O)c1ccc(C(F)(F)F)cc1 [Intermediate 19] | 6 to 30 µM |
| O=C(O)/C=C/C(=O)OC1(c2ccc(Cl)cn2)CCC1 [Intermediate 24] | 30 to 50 µM |
| O=C(O)/C=C/C(=O)OC1(c2ccc(OC(F)(F)F)cc2)CCC1 [Intermediate 30] | < 6 µM |
| O=C(O)/C=C/C(=O)OC1(c2cc(Cl)c(F)c(Cl)c2)CCC1 [Intermediate 25] | 6 to 30 µM |

Let's switch to this compound now.
Entry COC(=O)/C=C/C(=O)O [monomethyl fumarate, Monomethyl fumarate, reference compound] , system IL-1β: what IC50 was measured?
> 100 µM

====

# Test system: IL-1β
# METHOD DESCRIPTION: THP-1 AlphaLISA IL-1β cytokine assay
# Assay type: cell-based
# RUN CONDITIONS: Homo sapiens; differentiated THP-1 cells; Table 2, compounds of formula (II)
Each record here notes measured IC50.

Bench note: what IC50 did O=C(O)/C=C/C(=O)OC1(c2ccc(Cl)cc2)CCC1 [Intermediate 13] show?
6 to 30 µM

Ok, now O=C(O)/C=C/C(=O)OC1(c2ccc(C(F)(F)F)cc2)CCOCC1 [Intermediate 35]
50 to 100 µM

Ok, now O=C(O)/C=C/C(=O)OC1(c2ccc(C(F)(F)F)cc2)CC(F)(F)C1 [Intermediate 32]
< 6 µM

====

# Test system: hepatocytes
# METHOD DESCRIPTION: Hepatocyte stability assay, human
# Type: in vitro ADME
# RUN CONDITIONS: 10 μM compound, Table 6
# Protocol: Biological Example 3—Hepatocyte Stability Assay […] The metabolic stability in hepatocytes assay involves a time-dependent reaction using both positive and negative controls. The cells must be pre-incubated at 37° C. then spiked with test compound (and positive control); samples taken at pre-determined time intervals are analysed to monitor the change in concentration of the initial drug compound over 60 minutes. […]
ENDPOINT LABEL: CIint

Recorded results for 6 compounds are shown here.
| COMPOUND | CIint |
| --- | --- |
| C[C@H](OC(=O)/C=C/C(=O)O)c1ccc(C(F)(F)F)cc1 [Intermediate 19] | ++++ (++++ means 5-15) |
| O=C(O)/C=C/C(=O)OC1(c2ccc(C(F)(F)F)cc2)CC1 [Intermediate 38] | +++ (+++ means >15-30) |
| O=C(O)/C=C/C(=O)OC1CCCCCCC1 [Intermediate 6] | ++++ (++++ means 5-15) |
| O=C(O)/C=C/C(=O)OC(c1ccc(C(F)(F)F)cc1)C(F)(F)F (single isomer, unassigned) [Intermediate 44] | ++ (++ means >30-110) |
| O=C(O)/C=C/C(=O)OC1(c2ccc(C(F)(F)F)s2)CCC1 [Intermediate 36] | ++++ (++++ means 5-15) |
| O=C(O)/C=C/C(=O)OC(c1ccc(C(F)(F)F)cc1)C(F)(F)F (single isomer, unassigned) [Intermediate 45] | ++ (++ means >30-110) |

Bench note: what CIint did O=C(O)/C=C/C(=O)OC1(c2ccc(C(F)(F)F)c(Cl)c2)CCC1 [Intermediate 26] show?
+++ (+++ means >15-30)

Ok, now O=C(O)/C=C/C(=O)OC1(c2ccc(Br)cc2)CCC1 [Intermediate 12]
+++ (+++ means >15-30)

Ok, now COC(=O)/C=C/C(=O)OCCN1C(=O)CCC1=O [reference compound]
>277 μL min^−1 10^−6 cells

Ok, now O=C(O)/C=C/C(=O)OC1(c2ccc(C(F)(F)F)cc2)COC1 [Intermediate 18]
++ (++ means >30-110)

====

# Test system: IL-1β
# METHOD DESCRIPTION: THP-1 AlphaLISA IL-1β cytokine assay
# Assay type: cell-based
# RUN CONDITIONS: Homo sapiens; differentiated THP-1 cells; Table 2, compounds of formula (II)
pIC50: −log10 of the molar value.
ENDPOINT LABEL: pIC50

| COMPOUND | ENDPOINT LABEL | RESULT |
| --- | --- | --- |
| COc1cc(OC)cc(C2(OC(=O)/C=C/C(=O)O)CCC2)c1 [Intermediate 40] | pIC50 | < 4.00 |
| O=C(O)/C=C/C(=O)OC1(c2cc(F)c(C(F)(F)F)c(F)c2)CCC1 [Intermediate 29] | pIC50 | > 5.22 |
| C[C@@H](OC(=O)/C=C/C(=O)O)c1ccc(C(F)(F)F)cc1 [Intermediate 20] | pIC50 | 4.52 to 5.22 |

Bench note: what pIC50 did O=C(O)/C=C/C(=O)OC1CCCCCC1 [Intermediate 8] show?
4.30 to 4.52

Ok, now O=C(O)/C=C/C(=O)OC1(c2ccc(C(F)(F)F)cc2)CSC1 [Intermediate 17]
4.52 to 5.22

Ok, now O=C(O)/C=C/C(=O)OC1(c2cccc(C(F)(F)F)c2)CCC1 [Intermediate 10]
4.52 to 5.22

Ok, now O=C(O)/C=C/C(=O)OC1(c2ccc(C(F)(F)F)cn2)CCC1 [Intermediate 9]
4.52 to 5.22

Ok, now O=C(O)/C=C/C(=O)OC(c1ccc(C(F)(F)F)cc1)C(F)(F)F (single isomer, unassigned) [Intermediate 44]
> 5.22

Ok, now CC1(OC(=O)/C=C/C(=O)O)CCC1 [Intermediate 4]
< 4.00

Ok, now O=C(O)/C=C/C(=O)OC1(c2ccc(Br)cn2)CCC1 [Intermediate 23]
4.52 to 5.22

====

# Tested on: IL-1β
# METHOD DESCRIPTION: THP-1 AlphaLISA IL-1β cytokine assay
# Type: cell-based
# RUN CONDITIONS: Homo sapiens; differentiated THP-1 cells; Table 2, compounds of formula (II)
pIC50: −log10 of the molar value.
ENDPOINT LABEL: pIC50

Recorded results for 6 compounds are shown here.
| COMPOUND | pIC50 |
| --- | --- |
| O=C(O)/C=C/C(=O)OC1(c2ccc(C(F)F)cc2)CCC1 [Intermediate 31] | 4.52 to 5.22 |
| O=C(O)/C=C/C(=O)OC1(c2ccc(C(F)(F)F)cc2)CCC1 [Intermediate 3] | > 5.22 |
| O=C(O)/C=C/C(=O)OC1(c2ccc(C(F)(F)F)s2)CCC1 [Intermediate 36] | > 5.22 |
| C[C@H]1C[C@](OC(=O)/C=C/C(=O)O)(c2ccc(C(F)(F)F)cc2)C1 (single isomer, unassigned) [Intermediate 33] | > 5.22 |
| O=C(O)/C=C/C(=O)OC1(c2ccc(Br)cc2)CCC1 [Intermediate 12] | 4.52 to 5.22 |
| O=C(O)/C=C/C(=O)OC1(c2cc(Cl)cc(Cl)c2)CCC1 [Intermediate 14] | 4.52 to 5.22 |

Entry N#Cc1ccc(C2(OC(=O)/C=C/C(=O)O)CCC2)cc1 [Intermediate 27] , system IL-1β: what pIC50 was measured?
4.00 to 4.30

Ok, now O=C(O)/C=C/C(=O)OC1(c2ccc(C(F)(F)F)c(F)c2)CCC1 [Intermediate 16]
> 5.22

Ok, now O=C(O)/C=C/C(=O)OC1(c2ncc(C(F)(F)F)cn2)CCC1 [Intermediate 39]
4.30 to 4.52

Ok, now O=C(O)/C=C/C(=O)OC1(c2ccc(C(F)(F)F)nc2)CCC1 [Intermediate 15]
4.30 to 4.52

Ok, now N#C[C@H]1C[C@](OC(=O)/C=C/C(=O)O)(c2ccc(C(F)(F)F)cc2)C1 (single isomer, unassigned) [Intermediate 34]
4.52 to 5.22

Ok, now O=C(O)/C=C/C(=O)OC1(c2cc(Cl)cc(OC(F)(F)F)c2)CCC1 [Intermediate 41]
4.52 to 5.22

Ok, now O=C(O)/C=C/C(=O)OC1CCCCCCC1 [Intermediate 6]
4.52 to 5.22

Ok, now O=C(O)/C=C/C(=O)OC1(c2cc(F)c(F)c(F)c2)CCC1 [Intermediate 28]
4.52 to 5.22

Ok, now O=C(O)/C=C/C(=O)OC1CC2(CCC2)C1 [Intermediate 7]
4.52 to 5.22

Ok, now O=C(O)/C=C/C(=O)OC1(c2ccc(C(F)(F)F)cc2)COC1 [Intermediate 18]
4.52 to 5.22
